Origin of values: patent US9567322B2

- Target Or Test System: F508delCFTR (Homo sapiens, UniProt P13569, DEL508-508)
- Sequence (P13569 with tags, fused parts or gaps DEL508-508): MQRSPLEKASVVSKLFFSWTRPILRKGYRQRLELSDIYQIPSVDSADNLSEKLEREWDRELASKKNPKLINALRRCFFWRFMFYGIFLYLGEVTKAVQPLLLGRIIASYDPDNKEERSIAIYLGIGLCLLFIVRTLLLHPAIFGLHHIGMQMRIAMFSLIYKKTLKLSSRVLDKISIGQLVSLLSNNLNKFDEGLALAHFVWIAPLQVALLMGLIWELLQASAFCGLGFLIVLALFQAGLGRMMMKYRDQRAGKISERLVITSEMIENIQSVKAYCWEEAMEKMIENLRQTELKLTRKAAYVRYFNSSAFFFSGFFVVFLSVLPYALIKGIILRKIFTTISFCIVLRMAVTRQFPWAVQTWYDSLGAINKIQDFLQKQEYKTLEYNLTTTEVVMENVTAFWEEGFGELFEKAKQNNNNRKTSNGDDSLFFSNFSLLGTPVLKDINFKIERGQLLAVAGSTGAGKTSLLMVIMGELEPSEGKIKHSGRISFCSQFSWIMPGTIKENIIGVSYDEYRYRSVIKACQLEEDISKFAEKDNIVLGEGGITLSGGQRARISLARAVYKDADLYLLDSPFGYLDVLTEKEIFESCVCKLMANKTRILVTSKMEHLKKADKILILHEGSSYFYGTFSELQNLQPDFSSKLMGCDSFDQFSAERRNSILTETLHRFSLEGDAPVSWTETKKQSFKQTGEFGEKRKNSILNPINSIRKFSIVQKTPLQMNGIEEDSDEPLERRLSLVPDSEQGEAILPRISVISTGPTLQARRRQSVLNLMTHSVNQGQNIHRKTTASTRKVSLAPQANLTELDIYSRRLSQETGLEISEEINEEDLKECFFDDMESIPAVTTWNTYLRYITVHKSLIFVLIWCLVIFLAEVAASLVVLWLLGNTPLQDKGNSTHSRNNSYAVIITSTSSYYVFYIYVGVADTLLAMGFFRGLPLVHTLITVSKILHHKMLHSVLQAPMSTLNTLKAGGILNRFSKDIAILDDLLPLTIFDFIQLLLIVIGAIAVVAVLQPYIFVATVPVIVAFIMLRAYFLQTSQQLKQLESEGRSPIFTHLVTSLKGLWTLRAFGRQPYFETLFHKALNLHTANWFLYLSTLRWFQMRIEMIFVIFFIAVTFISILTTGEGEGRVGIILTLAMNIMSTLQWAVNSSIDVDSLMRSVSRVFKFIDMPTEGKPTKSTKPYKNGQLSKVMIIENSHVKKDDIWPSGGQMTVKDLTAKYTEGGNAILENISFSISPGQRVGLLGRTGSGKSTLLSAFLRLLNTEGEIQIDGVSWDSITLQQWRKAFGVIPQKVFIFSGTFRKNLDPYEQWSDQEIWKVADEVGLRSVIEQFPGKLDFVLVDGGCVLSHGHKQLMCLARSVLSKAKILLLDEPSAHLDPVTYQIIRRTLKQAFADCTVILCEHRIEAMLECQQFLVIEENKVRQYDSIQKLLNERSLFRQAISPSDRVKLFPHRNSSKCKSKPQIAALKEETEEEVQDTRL
- Protocol: Cell Surface Expression-Horse Radish Peroxidase (CSE-HRP) assay
- Condition Summary: CFBE41o-F508delCFTR-HRP cells, cell surface expression, luminescence readout; 18-24 hours at 33° C.; highest concentration tested 20 μM, 8-point curve
pEC50: −log10 of the molar value.
Measurement Type: pEC50

INSERT INTO assay_data (compound, target_or_test_system, recorded_value) VALUES
  ('O=C(O)c1cccc([C@H]2C[C@@H](NC(=O)C3(c4ccc5c(c4)OC(F)(F)O5)CC3)CCO2)c1 (racemic) [Example 2]', 'F508delCFTR (Homo sapiens, UniProt P13569, DEL508-508)', 6.07),
  ('COC(=O)c1ccc([C@H]2C[C@H](NC(=O)C3(c4ccc5c(c4)OC(F)(F)O5)CC3)CC(C)(C)O2)cc1 (racemic)', 'F508delCFTR (Homo sapiens, UniProt P13569, DEL508-508)', 5.39),
  ('COC(=O)c1ccc([C@H]2C[C@@H](NC(=O)C3(c4ccc5c(c4)OC(F)(F)O5)CC3)C[C@@H](c3ccc(OC)cc3)O2)cc1 (racemic)', 'F508delCFTR (Homo sapiens, UniProt P13569, DEL508-508)', 6.07);

[I] CCOC(=O)c1cccc([C@H]2C[C@@H](NC(=O)C3(c4ccc5c(c4)OC(F)(F)O5)CC3)C[C@@H](c3cccc(OC)c3)O2)c1 (racemic)
[II] Cc1cc(C(=O)O)cc([C@H]2C[C@@H](NC(=O)C3(c4ccc5c(c4)OC(F)(F)O5)CC3)C[C@@H](c3ccccc3)O2)c1 (single isomer, unassigned) [Example 75]
[III] COC(=O)c1ccc([C@H]2C[C@H](NC(=O)C3(c4ccc5c(c4)OC(F)(F)O5)CC3)C[C@@H](C)O2)cc1 (racemic)
[IV] COC(=O)c1ccc([C@H]2C[C@@H](NC(=O)C3(c4ccc5c(c4)OC(F)(F)O5)CC3)CCO2)c(C)c1 (single isomer, unassigned) [Example 41]
Request: Hello, I need these entries ordered by pEC50, highest reading first. Thanks! Record the ranking as a list of labels in the requested order.
Result: II, IV, I, III
